Let's look at some compounds and their measured inhibition at 10 µM.
- studyTarget: human B-Raf (Homo sapiens)
- Construct: Flag; GST; made in house; host or cells: Sf9 insect cells (B-Raf); E. coli (MEK1-GST)
- Sequence (P15056 whole entry): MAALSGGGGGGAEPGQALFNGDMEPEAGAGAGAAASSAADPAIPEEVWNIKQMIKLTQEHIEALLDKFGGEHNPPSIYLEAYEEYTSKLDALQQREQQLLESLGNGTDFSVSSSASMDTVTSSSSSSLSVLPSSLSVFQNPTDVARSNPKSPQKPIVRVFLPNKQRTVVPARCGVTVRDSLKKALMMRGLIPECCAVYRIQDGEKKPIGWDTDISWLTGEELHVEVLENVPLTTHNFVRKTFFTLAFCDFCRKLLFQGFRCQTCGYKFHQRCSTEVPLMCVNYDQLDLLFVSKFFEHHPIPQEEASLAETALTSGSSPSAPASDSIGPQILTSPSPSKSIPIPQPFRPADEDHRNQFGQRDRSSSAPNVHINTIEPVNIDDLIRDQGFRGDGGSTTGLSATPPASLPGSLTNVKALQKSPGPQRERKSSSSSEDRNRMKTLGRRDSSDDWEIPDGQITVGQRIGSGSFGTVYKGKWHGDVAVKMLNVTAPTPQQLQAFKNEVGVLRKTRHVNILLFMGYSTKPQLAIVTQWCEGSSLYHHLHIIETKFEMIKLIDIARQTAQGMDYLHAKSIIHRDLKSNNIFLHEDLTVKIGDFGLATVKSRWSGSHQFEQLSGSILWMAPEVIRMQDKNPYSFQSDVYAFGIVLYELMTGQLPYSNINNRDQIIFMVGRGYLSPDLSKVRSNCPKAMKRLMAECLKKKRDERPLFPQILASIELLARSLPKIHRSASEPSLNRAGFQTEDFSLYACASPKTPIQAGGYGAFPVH
- experimentalDetails: B-Raf Kinase to MEK1 ELISA
- Format: biochemical
- conditionDescription: read-out: % Inhib./10 uM
- Experimental: TITLE: B-Raf Kinase to MEK1 ELISA PURPOSE: To discover B-Raf Kinase inhibitors that can inhibit growth of tumor cells which contain oncogenic forms of Receptor Tyrosine Kinases or K-Ras, or B-Raf kinase. […] B-Raf-1 is used to phosphorylate GST-MEK1. MEK1 phosphorylation is measured by a phospho-specific antibody (from Cell Signaling Technology, cat. #9121) that detects phosphorylation of two serine residues at positions 217 and 221 on MEK1. […] 11. Read plates in Wallac Victor model Plate Reader. […]
quantityMeasured: inhibition at 10 µM (%)

CCOC(=O)c1cnn2c(-c3cccc(NC(=O)Cc4cccc(OC)c4)c3)ccnc12 [Example 96] = 0
O=C(Nc1cccc(-c2ccnc3cc(-c4ccncc4)nn23)c1)c1ccc(Cl)c(C(F)(F)F)c1 [Example 129] = 86
CCOC(=O)c1cnn2c(-c3cccc(NC(=O)Nc4ccc(Cl)cc4)c3)ccnc12 [Example 34] = 37
CCOC(=O)c1cnn2c(-c3cccc(NC(=O)Nc4nc5ccc(OC)cc5s4)c3)ccnc12 [Example 244] = 24
CC(=O)Nc1ccc(-c2cnn3c(-c4cccc(NC(=O)c5ccc(C)c(C(F)(F)F)c5)c4)ccnc23)cc1 [Example 184] = 89
CCNC(=O)c1cnn2c(-c3cccc(NC(=O)c4cccc(C(F)(F)F)c4)c3)ccnc12 [Example 51] = 50
Cc1ccc(C(=O)Nc2cccc(-c3ccnc4c(-c5ccc(N)cc5)cnn34)c2)cc1C(F)(F)F [Example 180] = 95
Cc1cnc2c(-c3cccnc3)cnn2c1-c1cccc(NC(=O)c2cccc(C(F)(F)F)c2)c1 [Example 179] = 90
CCOC(=O)c1cnn2c(-c3cccc(NC(=O)Cc4cccc(Br)c4)c3)ccnc12 [Example 92] = 97
CN(C)CCc1cccc(-c2cnn3c(-c4cccc(NC(=O)c5cccc(C(F)(F)F)c5)c4)ccnc23)c1 [Example 281] = 98
CCOC(=O)c1cnn2c(-c3ccc(Cl)c(NC(=O)c4cccc(C(F)(F)F)c4)c3)ccnc12 [Example 86] = 18
O=C(Nc1cccc(-c2ccnc3cc(-c4ccncc4)nn23)c1)c1ccccc1Cl [Example 145] = 24
O=C(Nc1cccc(-c2ccnc3cc(-c4ccc(Cl)cc4)nn23)c1)c1cccc(C(F)(F)F)c1 [Example 115] = 24
Cc1cccc(C(=O)Nc2cccc(-c3ccnc4cc(-c5ccncc5)nn34)c2)c1 [Example 147] = 66
O=C(Cc1nnn[nH]1)Nc1ccc(-c2cnn3c(-c4cccc(NC(=O)c5cccc(C(F)(F)F)c5)c4)ccnc23)cc1 [Example 233] = 96
CN(C)S(=O)(=O)c1ccc(-c2cnn3c(-c4cccc(NC(=O)c5cccc(C(F)(F)F)c5)c4)ccnc23)cc1 [Example 288] = 35
CNc1ccc(-c2cnn3c(-c4cccc(NC(=O)c5cccc(C(F)(F)F)c5)c4)ccnc23)cn1 [Example 284] = 92
Cn1cc(-c2cnn3c(-c4cccc(NC(=O)c5cccc(C(F)(F)F)c5)c4)ccnc23)cn1 [Example 308] = 86
O=C(Nc1cccc(-c2ccnc3cc(-c4ccncc4)nn23)c1)c1ccc(Br)s1 [Example 239] = 86
COCCOCC(=O)Nc1ccc(-c2cnn3c(-c4cccc(NC(=O)c5cccc(C(F)(F)F)c5)c4)ccnc23)cc1 [Example 235] = 84
CCOC(=O)c1cnn2c(-c3cccc(NC(=O)Nc4ccc(SC(F)(F)F)cc4)c3)ccnc12 [Example 24] = 11
Cc1ccc(C(=O)Nc2cccc(-c3ccnc4c(-c5cccnc5)cnn34)c2)cc1C(F)(F)F [Example 169] = 96
CCOC(=O)c1cnn2c(-c3cccc(NC(=O)c4cc(C(C)(C)C)nn4C)c3)ccnc12 [Example 243] = 18
O=Cc1ccc(-c2cnn3c(-c4cccc(NC(=O)c5cccc(C(F)(F)F)c5)c4)ccnc23)o1 [Example 313] = 78
COc1ccc(C(=O)Nc2cccc(-c3ccnc4cc(-c5ccncc5)nn34)c2)cc1C(F)(F)F [Example 130] = 91
O=C(Nc1cccc(-c2ccnc3c(C(=O)NCCCn4ccnc4)cnn23)c1)Nc1ccc(Cl)c(C(F)(F)F)c1 [Example 120] = 92
CCOC(=O)c1cnn2c(-c3cccc(NC(=O)Nc4ccc(C)c(Cl)c4)c3)ccnc12 [Example 82] = 77
O=C(Nc1cccc(-c2ccnc3cc(-c4ccnc(NCCCN5CCCCC5)c4)nn23)c1)c1cccc(C(F)(F)F)c1 [Example 259] = 99
COCC(=O)Nc1ccc(-c2cnn3c(-c4cccc(NC(=O)c5cccc(C(F)(F)F)c5)c4)ccnc23)cc1 [Example 229] = 83
Cc1ccc(C(=O)Nc2cccc(-c3ccnc4cc(-c5cccs5)nn34)c2)cc1C(F)(F)F [Example 117] = 24

Every entry's value here was drawn from patent US20070219186A1.
